self-splicing fitness (ln) values for the sequences below.
- EXPERIMENT_DESCRIPTION: self-splicing fitness, log relative to wild type (ln ratio); higher = more splicing; Tetrahymena group I intron in knt gene, E. coli kanamycin selection, DiMSum; sequences stand for … in CUCUCU…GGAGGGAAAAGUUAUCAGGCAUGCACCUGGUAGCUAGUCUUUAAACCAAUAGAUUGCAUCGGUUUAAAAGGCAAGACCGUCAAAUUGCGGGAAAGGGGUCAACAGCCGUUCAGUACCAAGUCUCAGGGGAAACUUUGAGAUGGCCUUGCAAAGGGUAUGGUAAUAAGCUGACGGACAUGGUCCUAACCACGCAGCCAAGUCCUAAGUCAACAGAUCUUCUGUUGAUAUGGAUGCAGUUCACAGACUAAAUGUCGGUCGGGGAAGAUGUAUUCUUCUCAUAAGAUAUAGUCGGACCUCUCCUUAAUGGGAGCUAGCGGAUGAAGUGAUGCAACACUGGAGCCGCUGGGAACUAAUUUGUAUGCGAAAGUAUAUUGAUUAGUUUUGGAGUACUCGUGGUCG;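 also: selection with 25 µg/mL kanamycin versus none on LB agar overnight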
- MEASUREMENT_SETUP: 37 °C
The answer should be a number; do not append a unit.

# PRIMARY_SEQUENCE, READOUT_NAME, MEASUREMENT
records = [
    ("UUUCAGCAAUAUUACGGCUC", "self-splicing fitness (ln)", 0.0864),
]

Sample AGCUAGCAAUAUUACGCCUG ; self-splicing fitness (ln) observed: -1.55

For reference, reported self-splicing fitness (ln) for AGUAAGCAAUAUUACGUCAA stands at -2

GCGUAGCAAUAUUACGGUAC yielded self-splicing fitness (ln) of -1.44

self-splicing fitness (ln) recorded for this sequence, CACGAGCAAUAUUACGACAA , is -2.44

Entry under test: AUUCAGCAAUAUUACGACGA . Its self-splicing fitness (ln) was -0.53

For CGUGAGCAAUAUUACGGGGG the sequence record lists self-splicing fitness (ln) as -3.28

Recorded result, CGAUAGCAAUAUUACGGACA , self-splicing fitness (ln): -0.977

Item: UGCGAGCAAUAUUACGACGU | self-splicing fitness (ln): -0.731

Quick note, self-splicing fitness (ln) for GGGUAGCAAUAUUACGUCGG landed at -1.68

What the record says about GGACAGCAAUAUUACGUCGA : self-splicing fitness (ln) is 0.755

# self-splicing fitness (ln) of CUUCAGCAAUAUUACGAGGA = -1.64

GET /value?item= CCGAAGCAAUAUUACGGUAA &field=self-splicing fitness (ln) returns -3.15

// self-splicing fitness (ln) lookup, sequence = CGUCAGCAAUAUUACGCAUG , result: 0.0876

# self-splicing fitness (ln) of AUAGAGCAAUAUUACGUGGU = -1.83

The sequence UUGUAGCAAUAUUACGCAGG showed self-splicing fitness (ln) equal to 0.28

Entry ACCCAGCAAUAUUACGGGAG — recorded self-splicing fitness (ln) = -1.05

GET /value?item= CACGAGCAAUAUUACGCAGG &field=self-splicing fitness (ln) returns -2.55

Record CGGUAGCAAUAUUACGCCUG , field self-splicing fitness (ln): -0.225

The sequence UUUCAGCAAUAUUACGCUUA showed self-splicing fitness (ln) equal to 0.0227

response.value for UGGGAGCAAUAUUACGCGAA (field: self-splicing fitness (ln)) = -1.67

GET /value?item= AUGCAGCAAUAUUACGUUAU &field=self-splicing fitness (ln) returns -1.24
